For each record, write down the corresponding inhibition.
- assay: A qHTS for Small Molecule Inhibitors of Shiga Toxin
- experimental.conditions: Vero cells, Shiga toxin protein synthesis inhibition reporter; at 38.7 µM, hits give high values
Among all 290,000 compounds or so, about 27,000 (9.3%) were called active. The sample holds actives, similar compounds and a random draw of the others, so the mix is not that of the screen.
Numbers only, in %.

// below: answered compounds
1. COc1ccc(-n2c(=O)[nH]c3cc(C(=O)NCCc4ccc(OC)c(OC)c4)ccc3c2=O)c(OC)c1; 3.16
2. CC(=O)N1CCN(CC(=O)Nc2ccc(C)c(F)c2)CC1; -1.77
3. COc1ccc(CNC(=O)c2cc(C(=O)C3CC3)c[nH]2)cc1; 27.9

For each listed entry, give its inhibition.
1. CCn1cc(/C=C(\NC(=O)c2ccc(C)cc2)C(=O)NCCN2CCOCC2)c2ccccc21
2. Cc1c(NC(=S)NCc2ccc(F)cc2)cccc1[N+](=O)[O-]
3. Cc1cccc(-n2cnc(C(=O)NNC(=S)Nc3ccccc3)c2)n1
4. CCOC(=O)c1c(-c2ccccc2)oc2cc(Br)c(O)cc12
5. CCC1=Nc2cc(C(=O)NCCN3CCCC3)ccc2Sc2ccc(C)cc21

Response:
1.24
-13.6
-10.7
-8.35
-6.55

----------
- assay: A qHTS for Small Molecule Inhibitors of Shiga Toxin
- experimental.conditions: Vero cells, Shiga toxin protein synthesis inhibition reporter; at 38.7 µM, hits give high values
Hit rate of the full screen: of about 290,000 compounds, about 27,000 (9.3%) were called active. The entries come from a sample that favours actives as a whole.
For each record, write down the corresponding inhibition.

For each listed entry, give its inhibition.
1. CC(c1ccco1)N(C(=O)Nc1ccccc1)C1CCCCC1 (stereo not drawn)
2. CC(C)NC(=O)C(=O)N/N=C/c1ccco1
3. O=C(NC(=S)Nc1ccccc1C(=O)O)c1ccc(-c2ccc(Br)cc2)o1
4. COc1ccccc1CCNS(=O)(=O)c1cc2c3c(c1)C(C)C(=O)N3CCC2 (stereo not drawn)
5. O=C(Nc1ccc(S(=O)(=O)N2CCCC2)cc1Cl)C1=COCCO1

Response:
1: 71.5% (inactive); 2: -4.96% (inactive); 3: 125% (active); 4: -4.37% (inactive); 5: -24.5% (inactive)

For each listed entry, give its inhibition.
1. NS(=O)(=O)c1ccc2nc(NC(=O)CS(=O)(=O)c3ccc(F)cc3)sc2c1
2. COc1ccccc1Oc1nc(-c2cccnc2)nc2ccccc12
3. COc1cccc(CNS(=O)(=O)c2ccc3c(c2)CC(C)N3C(C)=O)c1 (stereo not drawn)
4. CC(C)Cn1cnc2c1c(=O)n(CC(=O)NN)c(=O)n2Cc1ccccc1
5. Cc1cc(-c2nnc(SCC(=O)Nc3ccc(F)cc3)n2N)n[nH]1
6. CCN(CC(=O)NCC(=O)Nc1cccc(C)c1C)Cc1ccccc1
7. CCNC(=O)N1CCCC(C(=O)c2ccc(-c3ccccc3)cc2)C1 (stereo not drawn)
8. Cc1ccc(NC(=O)NC(=O)N(C2CCCCC2)S(=O)(=O)c2ccccc2)cc1

Response:
["-4.57% (inactive)", "10.4% (inactive)", "-5.4% (inactive)", "-7.02% (inactive)", "12.4% (inactive)", "-9.33% (inactive)", "36.1% (active)", "0% (active)"]

For each listed entry, give its inhibition.
1. COC(=O)c1ccccc1NC(=S)NC(=O)c1ccccc1F
2. O=C(c1ccc(-c2ccccc2)cc1)C1CCCN(C(=O)c2cncs2)C1 (stereo not drawn)
3. CCOc1ccccc1NS(=O)(=O)c1c[nH]c(C(=O)OC)c1
4. Cc1ccc(C)c(S(=O)(=O)Nc2cccc(-n3cnnn3)c2)c1
5. O=C(Cn1cnc2ccccc21)N/N=C/c1ccco1

Response:
-1.7% (inactive)
16.3% (inactive)
-3.38% (inactive)
23.9% (inactive)
15.9% (inactive)

----------
- assay: A qHTS for Small Molecule Inhibitors of Shiga Toxin
- experimental.conditions: Vero cells, Shiga toxin protein synthesis inhibition reporter; at 38.7 µM
The campaign covered roughly 290,000 compounds. About 27,000 (9.3%) were called active. Cut-off read from the data, not from the text of the source: active = inhibition mostly above about 28% (no sharp cut-off); inactive = mostly below about 43%. This excerpt belongs to a sample that is enriched for actives.
Would you mind answering with one of these outcomes? 1 (yes) = active, 0 (no) = inactive

# example entries with known answers
1. O=c1oc2ccccc2c(CNc2ccccc2)c1[N+](=O)[O-]; 0 (no)
2. CN(CC(=O)Nc1c(Cl)cccc1Cl)C(=O)CNC(=O)C1CCCCC1; 0 (no)
3. Cc1ccccc1NC(=O)CSc1ccc2nnc(-c3ccccn3)n2n1; 0 (no)
4. CCOC(=O)c1nn(-c2cccc(C)c2)cc1C(=O)c1ccccc1; 1 (yes)
5. Cc1ccc(N(C(=O)CNC(=O)c2ccco2)C(C(=O)NC2CCCC2)c2ccncc2)cc1 (stereo not drawn); 0 (no)

Prompt: Write down the call the test reported for this compound. Item: CC(CC(=O)Nc1ccc(F)cc1F)S(=O)(=O)c1ccc2c(c1)NC(=O)CO2 (stereo not drawn)
Response: 0 (no)

Prompt: Write down the call the test reported for this compound. Item: CCCc1ccc(OCC(O)CN2CCN(CCO)CC2)cc1 (stereo not drawn)
Response: 0 (no)

Prompt: Write down the call the test reported for this compound. Item: Cc1ccnc(NC(=O)c2ccco2)n1
Response: 0 (no)

Prompt: Write down the call the test reported for this compound. Item: CC(C)NC(=O)N1CCN(c2ccncc2S(=O)(=O)N2CCCCC2)CC1
Response: 0 (no)

Prompt: Write down the call the test reported for this compound. Item: CCOC12CC(C)(C)CC(C)(CC3=C1C(=O)CC(C)(C)C3)C2 (stereo not drawn)
Response: 0 (no)

Prompt: Write down the call the test reported for this compound. Item: CC(=O)c1nn(-c2cccc(Br)c2)cc1C(=O)c1cccc2ccccc12
Response: 0 (no)

Prompt: Write down the call the test reported for this compound. Item: O=C(Nc1ccc(Oc2ccccc2)cc1)c1ccco1
Response: 1 (yes)

Prompt: Write down the call the test reported for this compound. Item: Cc1cc(=O)n2nc(N3CCC(C(=O)Nc4c(F)c(F)c(F)c(F)c4F)CC3)sc2n1
Response: 0 (no)

----------
- assay: A qHTS for Small Molecule Inhibitors of Shiga Toxin
- experimental.conditions: Vero cells, Shiga toxin protein synthesis inhibition reporter; at 38.7 µM
About 27,000 (9.3%) of roughly 290,000 compounds were called active. No stated cut-off is given here; in the data, active means inhibition mostly above about 28% (no sharp cut-off); inactive means mostly below about 43%. The entries come from a sample that favours actives as a whole.
Would you mind answering with one of these outcomes? active, inactive

# example entries with known answers
1) O=C(CCS(=O)(=O)c1ccc(Br)cc1)NCCc1ccc(Cl)cc1; inactive
2) O=C(c1ccc2c(c1)N(Cc1ccc(F)cc1)C(=O)c1ccccc1S2(=O)=O)N1CCN(c2ccccn2)CC1; inactive

Prompt: Write down the call the test reported for this molecule. Item: S=C(Nc1cccc(Cl)c1)Nc1ccc2c(c1)OCCO2
Response: active

Prompt: Write down the call the test reported for this molecule. Item: CC(C)CC(=O)NC(=S)Nc1cc(C(=O)O)ccc1Cl
Response: inactive

Prompt: Write down the call the test reported for this molecule. Item: CCCC[C@]12Cc3cc(OC)c(OC)cc3C(O1)C1=C(CC3(CCCCC3)OC1=O)O2
Response: inactive

Prompt: Write down the call the test reported for this molecule. Item: CCc1ccccc1NC(=O)NCCN1CCCCC1
Response: inactive

Prompt: Write down the call the test reported for this molecule. Item: CCCn1nnc2sc3c(c2c1=O)CCC(C)C3 (stereo not given)
Response: active

Prompt: Write down the call the test reported for this molecule. Item: C=CCn1c(SCc2c(C)noc2C)nc2sc3c(c2c1=O)CCC(C)C3 (stereo not given)
Response: inactive

Prompt: Write down the call the test reported for this molecule. Item: Cc1cc(C)nc(S/C=C/C(=O)c2ccccc2)n1
Response: active

Prompt: Write down the call the test reported for this molecule. Item: N#Cc1c(NC(=O)C2CCCO2)sc2c1CCCCC2 (stereo not given)
Response: active

Prompt: Write down the call the test reported for this molecule. Item: S=C(NCc1ccc2c(c1)OCO2)NCc1ccco1
Response: inactive

----------
- assay: A qHTS for Small Molecule Inhibitors of Shiga Toxin
- experimental.conditions: Vero cells, Shiga toxin protein synthesis inhibition reporter; at 38.7 µM, hits give high values
Screen size: about 290,000 compounds; about 27,000 (9.3%) were called active. The entries come from a sample that favours actives as a whole.
For each record, write down the corresponding inhibition.
One number for each entry, in %.

// below: answered molecules
1) O=C(NCCN1CCOCC1)c1ccc2c(c1)ncn2C1CCCC1; -8.3
2) CC1=C(C(=O)OC2CCCCC2)C(c2ccccc2F)NC(=O)N1 (stereo unspecified); 4.41
3) COc1ccc(CCNC(=O)c2ccccc2OCc2ccccc2)cc1; 14.7

For each listed entry, give its inhibition.
1. COc1ccccc1-n1cnc2cc(C(=O)NCC3CCCO3)ccc21 (stereo unspecified)
2. COc1ccc(/C=N/n2nnnc2N)cc1OC

Response:
[-4.06, -3.85]

Prompt: Please report the measured inhibition for O=C(NCc1cccs1)c1ccc2c(c1)ncn2C1CCCC1
Response: 38

Where do the numbers come from? From PubChem BioAssay AID2315.
